growth inhibition values by entry
- Assay procedure: S. cerevisiae growth inhibition in restrictive medium, OD615, pilot screen, restrictive growth control, yeast lifespan reduction project (AID 706);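 further: modified DeaD lifespan yeast strain shifted to restrictive glucose medium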
- Setup conditions: OD615, 48 h, at 10 µM, stronger effect = higher value

| Compound | growth inhibition, % |
| --- | --- |
| Cc1ccc2c(c1)c(C)c(C)n2CC(O)CN1CCCCC1C (centres undefined) | -9.14 |
| COc1ccc(S(=O)(=O)Nc2ccc(F)c(Cl)c2)cc1OC | 4.31 |
| CCCn1c(N2CCN(Cc3cccc(C)c3)CC2)nc2c1c(=O)[nH]c(=O)n2C | 2.15 |
| CCc1nnc(NC(=O)C(C)Sc2ccccc2)s1 (centres undefined) | 18.9 |
| CCN(CC)S(=O)(=O)c1ccc2oc(C(=O)N3CCOCC3)c(C)c2c1 | -17.5 |
| COc1ccc(OCC(=O)N2CCN(C(=O)c3ccccc3)CC2)cc1 | -9.8 |
| Cc1cccc(CN2CCC(CNC(=O)C3CCCN(S(=O)(=O)c4cnc[nH]4)C3)CC2)c1 (centres undefined) | -2.77 |
| O=C(OCCN=C1NS(=O)(=O)c2ccccc21)C1CC(=O)N(c2ccc(Cl)cc2)C1 (centres undefined) | -8.43 |
| CCCC(=O)NCCc1nc2ccccc2n1CCC | 2.73 |
| O=C(OCCN(CCOC(=O)c1ccncc1)S(=O)(=O)c1cccs1)c1ccncc1 | 1.04 |
| Cc1cc(N2CCCC2)n2nc(C)nc2n1 | -17.2 |
| O=C(Cn1cc2c(n1)CCCC2)NCCc1ccccc1 | -9.12 |
| CCOc1ccc(OCC)c(Nc2cc(C)nc3nc(C)nn23)c1 | -2.15 |
| CCCn1nc2ccccc2c1P(=N)(N1CCOCC1)N1CCOCC1 | -23.5 |
| COC(=O)c1ccc(-c2nn(C)c(=O)c3ccccc23)cc1 | 6.35 |
| COc1nnc(-c2ccc(C)c(S(=O)(=O)NCCO)c2)c2ccccc12 | 10 |
| CN(C)c1ccc(C(=O)Nc2nnc(-c3ccc(Cl)cc3)o2)cc1 | -19.4 |
| CC1CCC(NC(=O)Cn2ncc3ccccc32)CC1 (centres undefined) | 1.29 |
| Cc1cc(C)c(NC(=O)Cn2cc3c(n2)CCCC3)c(C)c1 | 12.4 |
| O=C(NC1CCCC1)C1CCCN(S(=O)(=O)c2cccc3cccnc23)C1 (centres undefined) | 1.54 |
| CCOc1ccc(-c2nc(-c3ccccc3)no2)cc1OCC | -29.6 |
| O=C(NCCc1c[nH]c2ccccc12)c1cnc2n(c1=O)CCS2 | 2.1 |
| N#CC1=C(N)Oc2cc(O)ccc2C1C1CCCCC1 (centres undefined) | -9.19 |
| COc1cc(C(=O)NCCc2cn3ccc(C)cc3n2)cc(OC)c1OC | 4.06 |
